# TARGET ENTITY: T1, UNK ZnF1-3 (human, UniProt Q9C0B0 31-174)
# T1 sequence: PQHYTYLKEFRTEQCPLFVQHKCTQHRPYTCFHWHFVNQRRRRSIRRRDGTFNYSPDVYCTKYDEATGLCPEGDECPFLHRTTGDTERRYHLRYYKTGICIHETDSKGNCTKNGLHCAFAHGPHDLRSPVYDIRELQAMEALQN
# METHOD: nsRBNS (natural sequence RNA bind-n-seq); RBNS binding buffer (assumed for nsRBNS): 25 mM Tris pH 7.5, 150 mM KCl, 3 mM MgCl2, 0.01% Triton X-100, 500 ug/ml BSA, 20 U/ml SUPERase-In, 4 C; UNK is unkempt and MSI1 is Musashi-1; names of the RNAs are library labels; protein concentration not given here; high values mean tight binding
Whole data set: some 24,000 sequences, median “enrichment r” near 0.99, cut for the highest 2% near 3.7. Only a sample is shown.
A collection of binders and their measured binding signal

{"columns": ["BINDER", "binding signal"],
 "data": [
  ["101904251_101904371_108_5pUTR_ENSMUSG00000058655_ENSMUST00000169681|mouse|control|control (ssRNA) RNA: GGGAGUUCUACAGUCCGACGAUCGGAGAGAGAACGCAAAGGACCCGGAUGAGGCAGUCACGUGAUUAUAGCGGGCGCGACGGGCUUGGAGACGUGAAACCAGGAGGGGGCGGGGAGCCGAGGACGGAGGCAGAAGGCGGGGCGCAACAGAGGAUUGAGCAUCA", "3.03 enrichment R"],
  ["chr8:27055589:27055590:-_ENSMUSG00000037260_ENSMUST00000037609|mus_hu|FALSE|FALSE (ssRNA) RNA: GGGAGUUCUACAGUCCGACGAUCUUCCCUUUAACAAAGGCUGCUUCAGUCCUCCCUGCAGGCCUACUAGAGUCUUCCAGCAGCACAUCUCAGUGGGAGCCAUCAGAUUUUCCAAAAAAUCUUCUUUCUAUAGAGGAUGUAGGCCAACAGAGGAUUGAGCAUCA", "1.28 enrichment R"]
]}

All figures here come from paper PMC12136788.
